I'd appreciate it if you could supply log10(IC50) values for the items below.
# test_system: KRAS G12D (Homo sapiens, UniProt P01116, G12D)
# Sequence (P01116 with tags, fused parts or gaps isoform P01116-2 G12D): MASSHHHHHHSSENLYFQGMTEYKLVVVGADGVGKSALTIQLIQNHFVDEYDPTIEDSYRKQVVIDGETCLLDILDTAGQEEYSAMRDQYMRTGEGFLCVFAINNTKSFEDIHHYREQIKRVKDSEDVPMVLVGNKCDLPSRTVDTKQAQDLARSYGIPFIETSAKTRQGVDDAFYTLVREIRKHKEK
# test: Inhibitory activity on KRAS G12D nucleotide (GDP-GTP) exchange reaction in vitro (SOS1-dependent, BODIPY FL GDP)
# test_conditions: BODIPY FL GDP-bound recombinant KRAS G12D, 25° C. 1 hour preincubation, then SOS1 and GMPPNP 30 minutes at room temperature
Would you kindly interpret these values as log10 of IC50 expressed in µM?

INSERT INTO results (entry_smiles, experimental_readout, result_number) VALUES
  ('CC(C)N1CC[C@@H](n2c(CNc3cc(C(C)(C)C)c(Cl)cc3O)nc(Cl)c2C(=O)N(C)[C@H]2CCNC2)C1', 'log10(IC50)', 0.57),
  ('CC(C)N1CC[C@@H](n2c(CNc3n[nH]c4cc(Cl)c(C(C)(C)C)cc34)nc(Cl)c2C(=O)N(C)[C@@H]2CCNC2)C1', 'log10(IC50)', 0.11),
  ('CC[C@@H]1CNC[C@@H]1N(C)C(=O)c1c(Cl)nc(CNc2n[nH]c3cc(Cl)c(C(C)(C)C)cc23)n1C', 'log10(IC50)', 1.53),
  ('CN(C(=O)c1c(Cl)nc(CNc2cc(C(C)(C)C)c(Cl)cc2O)n1C)[C@H]1CCNC1', 'log10(IC50)', 1.42),
  ('CN(C(=O)c1c(Cl)nc(CNc2n[nH]c3cc(Cl)c(C(C)(C)C)cc23)n1C)[C@H]1CCNC1', 'log10(IC50)', 1.09);

Please give log10(IC50), item by item, for the list that follows.
1. CN(C(=O)c1c(Cl)nc(CNc2n[nH]c3cc(Cl)c(C(C)(C)C)cc23)n1C)[C@@H]1CNCC12CC2
2. CN(C(=O)c1c(Cl)nc(CNc2n[nH]c3cc(Cl)c(C(C)(C)C)cc23)n1C)C1CNC1

Marked response:
1.67
1.32
